# System: 786-O
# protocol summary: Euclidean distance of Cell Painting phenotypic profile (signed KS, 77 features) to DMSO centroid (dimensionless distance); 5 or 10 uM (library dependent); higher = stronger phenotypic change vs DMSO (phenoactivity)
# measurement parameters: 48 h
Structures can show the parent of a compound that is named as a salt.
# Euclidean distance per record follows
Lab note: jot down the number only; don't add units.

Record excerpt, results attached:
- molecule: "Cn1nnc2c(C(N)=O)ncn2c1=O [Temozolomide]"
  Euclidean distance: 1.44
- molecule: "Nc1ncn([C@H]2C[C@H](O)[C@@H](CO)O2)c(=O)n1"
  Euclidean distance: 1.92

GET /value?item= CCCCOCCOCCOCc1cc2c(cc1CCC)OCO2 [Piperonyl butoxide] &field=Euclidean distance returns 0.659

GET /value?item= COc1ccc2[nH]c([S+]([O-])Cc3ncc(C)c(OC)c3C)nc2c1 (centres undefined) [Omeprazole] &field=Euclidean distance returns 3.37

GET /value?item= COc1ccccc1N1CCN(CCCNc2cc(=O)n(C)c(=O)n2C)CC1 [Urapidil HCl] &field=Euclidean distance returns 1.39

GET /value?item= CCN(CC)C(=S)SSC(=S)N(CC)CC &field=Euclidean distance returns 1.95

GET /value?item= CN(C)CCn1nnnc1SCC1=C(C(=O)O)N2C(=O)[C@@H](NC(=O)Cc3csc(N)n3)[C@H]2SC1 [Cefotiam hydrochloride] &field=Euclidean distance returns 1.2

GET /value?item= Cc1[nH]c(/C=C2\C(=O)Nc3ccc(S(=O)(=O)N(C)c4cccc(Cl)c4)cc32)c(C)c1C(=O)N1CCN(C)CC1 &field=Euclidean distance returns 2.57

GET /value?item= Cc1cc(C(=O)NOCCO)c(Nc2ccc(I)cc2F)n(C)c1=O &field=Euclidean distance returns 2.89

Reference for the values: the supplement of paper PMC10127200
